testedTarget: furin, P09958;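 also: purified furin at 1:10 enzyme:substrate in 50 mM HEPES pH 7.5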
Sequence (P09958 whole entry): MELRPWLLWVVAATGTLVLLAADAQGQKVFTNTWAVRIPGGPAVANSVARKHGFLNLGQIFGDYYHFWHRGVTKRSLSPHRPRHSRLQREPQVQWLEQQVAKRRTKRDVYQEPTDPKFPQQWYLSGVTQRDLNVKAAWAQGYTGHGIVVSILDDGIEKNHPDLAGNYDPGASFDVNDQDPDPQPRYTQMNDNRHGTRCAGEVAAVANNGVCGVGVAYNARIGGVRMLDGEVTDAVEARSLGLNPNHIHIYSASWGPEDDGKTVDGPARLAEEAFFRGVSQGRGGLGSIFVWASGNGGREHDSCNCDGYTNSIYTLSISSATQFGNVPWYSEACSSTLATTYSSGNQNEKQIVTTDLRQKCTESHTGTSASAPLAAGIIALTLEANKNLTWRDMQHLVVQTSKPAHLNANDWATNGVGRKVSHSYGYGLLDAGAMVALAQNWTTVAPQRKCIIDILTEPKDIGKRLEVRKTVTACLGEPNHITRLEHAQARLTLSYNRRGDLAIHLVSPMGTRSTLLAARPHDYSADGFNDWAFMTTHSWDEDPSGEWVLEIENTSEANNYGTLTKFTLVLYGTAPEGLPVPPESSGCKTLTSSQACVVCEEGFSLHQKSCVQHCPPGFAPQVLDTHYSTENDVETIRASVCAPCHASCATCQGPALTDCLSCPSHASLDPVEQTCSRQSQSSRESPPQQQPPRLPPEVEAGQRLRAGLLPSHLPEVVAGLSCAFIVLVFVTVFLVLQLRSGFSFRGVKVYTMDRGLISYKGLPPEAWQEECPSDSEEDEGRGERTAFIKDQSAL
assayMethodText: furin cleavage Z-score vs untreated control; higher = more cleavage, active = 3.5 or more, inactive = 1 or less, 8 variable residues between constant flanks
conditionDescription: 7.5 min
Some of the results follow. The true hit rate is not given.
The label depends only on furin cleavage Z-score: 1.0 if it is at least 5, 0.0 if it is smaller.

>  <biosequence>
CAAVQTNWQKAGNASASA [HC1035]

>  <labelClass>
0.0

$$$$
>  <biosequence>
CARQKRAWITAGNASASA [FS-3202]

>  <labelClass>
0.0

$$$$
>  <biosequence>
CACGSGPWITAGNASASA [HC459]

>  <labelClass>
0.0

$$$$
>  <biosequence>
CARQKRAVATAGNASASA [FS-2360]

>  <labelClass>
1.0

$$$$
>  <biosequence>
CAQRRRSIRDAGNASASA [FS-287]

>  <labelClass>
1.0

$$$$
>  <biosequence>
CAIAAAGQLDAGNASASA [HC1640]

>  <labelClass>
0.0

$$$$

Source of measurements: the supplement of paper PMC3545927
